Measured values drawn from the domain aggregation screens of Martell et al. (2025) for this set.

experiment: soluble fraction after stress (log2 fold change); higher = more stays soluble; pooled small domains, quantitative proteomics; settings: stress: pH 4
Property Name: soluble fraction (log2)

Lookup: # get_value(readout='soluble fraction (log2)', item= HMDKGMQTMIDNLHKNTGKTLEEWIALVNRANFAKHGEVISFLKEKHGLTHGYANLVAHRLK )
Found: -0.361

Lookup: # get_value(readout='soluble fraction (log2)', item= HMSDTSAIEKIIDEVLSDESSQKAINDIKNGNEKVYGFLVGQVMKKSQGKANPGLVQKMLREKIAK )
Found: 0.22

Lookup: # get_value(readout='soluble fraction (log2)', item= HMKNANGYGSITKLKGNRRKPYMVRITVGRDENGFPIRKVLGYYSSKANAVAALSDYNREPYDI )
Found: -0.281

Lookup: # get_value(readout='soluble fraction (log2)', item= HMNFMDGFQSFFQESGAMNRPMTADVVSYRLPDGTVQQGNSTMRGLMDQYLKSIGQSPTTGVP )
Found: -0.176

Lookup: # get_value(readout='soluble fraction (log2)', item= HMISAEPVGEDLFKVAFPFLGGSTVFEKTIEQFIEEHPSKRIDHIYTVPNPLRLKKADALIFYIITEEK )
Found: -1.12

Lookup: # get_value(readout='soluble fraction (log2)', item= HMSPSDLSAEAQKVYALLDGRELSFDTLVEESGFDTGSLLAILMRLEMKMLVEHGADQVYRRSG )
Found: -0.98

Lookup: # get_value(readout='soluble fraction (log2)', item= HMSDKFNALWIILNKLDKKEKVTARSLMEDLEVSERSVYRYITTLQVAGFPVDYDRAVNSYVFSDGYTLK )
Found: -2.16

Lookup: # get_value(readout='soluble fraction (log2)', item= HMPATTMMVVVDRDLPYGHVLTDRDVRLETRRATSPGASVAFTSIDPVLGQSLTRPLGAGTPVGRADLR )
Found: -0.151

Lookup: # get_value(readout='soluble fraction (log2)', item= HMDRVMPVPEALIGMRFDIAVSRMLGVSRSQAAAYIDRGQVSIAGRGSQRSAQKSEKLVQGDSIEVAIA )
Found: 0.186

Lookup: # get_value(readout='soluble fraction (log2)', item= HMKKNNTTPIPKTLNYVNIKGLSNEAVERLNKHKPSTLGQASRLEGITPAATSLISIAIKKNQLLEKAES )
Found: 0.123

Lookup: # get_value(readout='soluble fraction (log2)', item= HMDAVTYAKGSSGETVREIQQLLLDWGYYSGEVDGIFGSRTEDAVEYFQRKNGLTVDGKVGPATLEALGIS )
Found: -0.349

Lookup: # get_value(readout='soluble fraction (log2)', item= HMGSLKEKIVLLEKLYQQNPSEEIKLLLINTYQLNHQYIQARKLFFTLTPEQKEKLPLASEFLIFL )
Found: -0.725

Lookup: # get_value(readout='soluble fraction (log2)', item= HMVKNLRKLREELGLTQQRLAELTGISKSRIYSYESLDREPDIAGLITLADFFSVSIDYLVGK )
Found: -1.01

Lookup: # get_value(readout='soluble fraction (log2)', item= HMESSNLESQLKKGIVPNLNGLSAKDALFLLENSGFNVKLYGMGSVKKQSLEAGKKYNKGDKITLIL )
Found: 0.219

Lookup: # get_value(readout='soluble fraction (log2)', item= HMPFESEMKHWIHLFAHELNLKVSDKYTQKIIEIFGNNFSEIFNEMSKSSLVSSNEKDLLNALEKSGNIH )
Found: -0.862

Lookup: # get_value(readout='soluble fraction (log2)', item= HMSANVSMEEALRRTSQAHSLAGKWMRRVLQMAQGRDLIEQMQREAQEAHLPELIGMSVQLEFIRRG )
Found: -0.363

Lookup: # get_value(readout='soluble fraction (log2)', item= HMAENMNAALRVSSLINQIGTVNAKAKDRIESARKAYDALSEAQKAYVANLTTLETAETSLSKL )
Found: 0.146

---

Provide the recorded soluble fraction (log2) for the entries that follow.
assay: soluble fraction after stress (log2 fold change); higher = more stays soluble; pooled small domains, quantitative proteomics; details: stress: pH 4
Note: the reply should be a number with no unit written.

Lookup: # get_value(readout='soluble fraction (log2)', item= HMSIGLEGFVGKLGISTSDLRPSGWGEFDAKKLFVVTEGEFVDRKEKIEILSVDGNRILVRKIS )
Found: -0.471

Lookup: # get_value(readout='soluble fraction (log2)', item= HMQFYSGLEARLMDPNTPEVFDDPISLMAFLQQKNISRVELEDNLLLPYLKEMAGQPIPKAELLEIIRK )
Found: -2.19

Lookup: # get_value(readout='soluble fraction (log2)', item= HMIPKDKQAWIALTYIYGVGRTTSMEILKKAQVGEEIRMKDLTEEEVTRIRNIIDKEYEVEGDLRRN )
Found: -0.762

Lookup: # get_value(readout='soluble fraction (log2)', item= HMHLRYTYIYDNENRVTSKEASKWDSTQEAWVPYFKMNVSYVNNEVELSYARWNSKSNAYDSSIKKTI )
Found: -0.66

Lookup: # get_value(readout='soluble fraction (log2)', item= HMVVPSNPDELKGSFSLAEVASGYGLEVAAILEKAGWPADTDPNVKMRDAANAIGRDSTDIRNAVKALLKS )
Found: -0.468

Lookup: # get_value(readout='soluble fraction (log2)', item= HMITERVPVPDLTGMPLMEAIKTLNSSKLQYQVVGSVIEGDENRIIDQTPKPDIMVSEKSIVLLYLETYRG )
Found: -0.338

Lookup: # get_value(readout='soluble fraction (log2)', item= HMFGSKDVKRAIEDYAAAMSSQPRALSAPQRKVLIRHLATSGLLQLRGAAKIVADELGISRASVYNALKV )
Found: 0.193

Lookup: # get_value(readout='soluble fraction (log2)', item= HMGDAATVFRDHYNINSAAQAQAALDRKEALWEQPNPWRDSDNREVFDWAAQTVKDRFDSGKYKPK )
Found: -0.107

Lookup: # get_value(readout='soluble fraction (log2)', item= HMSRLQDAELQAQIDKMAGAMQLRDIPVYVQDIPTINGLAAPDGRVFITQGFIDKYKLGEVSAGEIASVI )
Found: 0.316

Lookup: # get_value(readout='soluble fraction (log2)', item= HMADEIQIGLQKAIQSLPEKQKLVFSMRYYDEIPYDEMSKILDMSVGTLKTNYHYAKQKIEDFLQNH )
Found: -0.0771

Lookup: # get_value(readout='soluble fraction (log2)', item= HMGAFAIHTASELSAGMRIRHERFGPGVITGIDTANPASGARIQVDFDNGTSKTLLLSYAKFQI )
Found: 0.22

Lookup: # get_value(readout='soluble fraction (log2)', item= HMETPLSAADFKIVFGEEYEIGTDANGLPKMGSRINRQLQNRFLTWASVNKRKATMSAYQDWVASDPAAQ )
Found: -0.693

Lookup: # get_value(readout='soluble fraction (log2)', item= HMGKAYMVPDVKNKSVNQAQLLLADKHMNGVVVDSSYVKELPAGIVLDQTPVGGMKVKEGRTVYLTINSD )
Found: 0.0742

Lookup: # get_value(readout='soluble fraction (log2)', item= HMIGPYAAAKLMTNKDFVKWLSGGVEKSVFNPNSFGQHIRRLVQISEVNPDIRDEINAVVQGLTQ )
Found: -0.00821

Lookup: # get_value(readout='soluble fraction (log2)', item= HMALPDWLDPEAWAAWKRHRKAIRKPLTEDAVALSIRELAKLRDEGYGPTSVIENAILKGWQGLYPPK )
Found: 0.143

Lookup: # get_value(readout='soluble fraction (log2)', item= HMRMTRQRKVILEELGKVYTHPTADEIYTMVKEKLPNISLGTVYRNLDLLAENNQVLKLETAGNIRRYD )
Found: -0.375

Lookup: # get_value(readout='soluble fraction (log2)', item= HMSAQQTFLRDAMRRLNMTRDSFAERIGVRRRALDTWLLPEDSSEYRTMPSIVEKFVGEILGREA )
Found: 0.112

Lookup: # get_value(readout='soluble fraction (log2)', item= HMHDYTTIIGVIELRLNKISYDNVQKRYRIGRSGISLIMERYRDSGLSLDDLKQMPAEKVVNLIYPKD )
Found: -0.108

Lookup: # get_value(readout='soluble fraction (log2)', item= HMVLANLQAAEQGDLGIKEGEKLTILQTRPDGWWTARNANGETGLVPK )
Found: 0.0851

Lookup: # get_value(readout='soluble fraction (log2)', item= HMSPAPVSVDHLAFPTRDLEATDHFYSKVVGATLVHAESGYSPSWKSDYLLITYALPDGTRLSFFDWP )
Found: -0.133

Lookup: # get_value(readout='soluble fraction (log2)', item= HMENLSFNINSEEEGQRIDKYLSVMIEGKSRSFVQGLIEEKKVKANSKVIKSNYKLKKGDFIEVEVPEPV )
Found: 0.36

Lookup: # get_value(readout='soluble fraction (log2)', item= HMTYIQSNLKFLRNKMNISQEELAKRLFVTHQTVSNHENGKSQPNFEMIEKYASFFNVPFEDLIHKDLSL )
Found: -0.309

Lookup: # get_value(readout='soluble fraction (log2)', item= HMRMLTKRRQDLLLELLEERGSITVSEVKDMLDASESTIRRDITALDEEGKLVKVFGGAVAAR )
Found: -0.465

Lookup: # get_value(readout='soluble fraction (log2)', item= HMNVNSQQINDLEKSIQKFFDKDIKNYLNQNLSNDRMISKNEIDKIILLYYGSDKEPTLDEIKSIFN )
Found: -1.19

Lookup: # get_value(readout='soluble fraction (log2)', item= HMDEILHHPSYRAIYEYMLDHKHVKTKDIAALLNVKEPRARQLLKEMIDKHFIIALGSNRNREYELL )
Found: 0.348

Lookup: # get_value(readout='soluble fraction (log2)', item= HMLKKGDQVYIISGKDKGKLGVVSQIVSEERILVDGINLAKKHVKPNPNKNETGGVVEKEMPIHASNVMI )
Found: -0.702

Lookup: # get_value(readout='soluble fraction (log2)', item= HMPTITSPMVGTFYRAPSPGAAPFIEVGDTVKKGQVIGIIEAMKLLNEVEADKDGVVQAFAAENGEL )
Found: -0.681

Lookup: # get_value(readout='soluble fraction (log2)', item= HMHQPPDLDDFEAFVGRVKPALLQALVATYGPVDGREATVDALSWAWEHWDRLADVDHPVGYLYRV )
Found: -0.189

Lookup: # get_value(readout='soluble fraction (log2)', item= HMDAQLRVPDLTPYNYSELKENTSLYEGFTIEVVEERSTGDYAAGTVLDQDPKADTLIQDGDSTVIKLVIA )
Found: -0.115

Lookup: # get_value(readout='soluble fraction (log2)', item= HMLPGKEIPLPEFLREAFARNEPALENFQNLAPSYRRQYILWITSAKTPETVQKRISESIGLLKENRKLGM )
Found: -0.0786

Lookup: # get_value(readout='soluble fraction (log2)', item= HMKVLNVLESEIVRLFKQGQQKDNIRDNIYKTHGQHYNNKKSFNVVFGRKWNSLLEQGFLES )
Found: 0.241

Lookup: # get_value(readout='soluble fraction (log2)', item= HMEMGNKIKELRTKLGITQEELSKTLNVSSQAVSKWENGGLPDLELIPEIAKYFNVTTDYLFDIK )
Found: -0.723

Lookup: # get_value(readout='soluble fraction (log2)', item= HMAPRLTERERQVLQLIAEGLTSMQIGDRLHIAASTVDVHRRNLMRKLDLHNVADLTRYAITQGISP )
Found: 0.00348
